Test system: K24384-001-R-PDC complex spheroid viability;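 further: spheroids exposed to agents for seven days before luminescence viability reading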
Assay: Anticancer human tumor K24384-001-R-PDC patient-derived pancreatic adenocarcinoma cell line growth inhibition; active means viability on the fitted dose curve at most 10% of control; inactive means the rest
Settings: second compound 3.16 µM; first compound 0.001 µM
Outcomes: true (active), false (inactive)

{"molecule": "CC(C)CC(NC(=O)C(Cc1ccccc1)NC(=O)c1cnccn1)B(O)O (stereo not drawn) + NC1CCC(NC2CC2c2ccccc2)CC1", "assigned label": "true"}
{"molecule": "Cn1ncnc1C1c2n[nH]c(=O)c3cc(F)cc(c23)NC1c1ccc(F)cc1 (stereo not drawn) + NC1CCC(NC2CC2c2ccccc2)CC1", "assigned label": "false"}
{"molecule": "CC[C@@]1(O)C(=O)OCc2c1cc1n(c2=O)Cc2cc3c(CN(C)C)c(O)ccc3nc2-1 + NC1CC1c1ccc(-c2cccc(O)c2)cc1", "assigned label": "false"}
{"molecule": "Cn1ncnc1C1c2n[nH]c(=O)c3cc(F)cc(c23)NC1c1ccc(F)cc1 (stereo not drawn) + NC1CC1c1ccc(-c2cccc(O)c2)cc1", "assigned label": "false"}
{"molecule": "CC[C@@]1(O)C(=O)OCc2c1cc1n(c2=O)Cc2cc3c(CN(C)C)c(O)ccc3nc2-1 + NC1CCC(NC2CC2c2ccccc2)CC1", "assigned label": "false"}
{"molecule": "CC(C)CC(NC(=O)CNC(=O)c1cc(Cl)ccc1Cl)B1OC(=O)CC(CC(=O)O)(C(=O)O)O1 (stereo not drawn) + NC1CCC(NC2CC2c2ccccc2)CC1", "assigned label": "false"}
{"molecule": "CC(C)CC(NC(=O)CNC(=O)c1cc(Cl)ccc1Cl)B1OC(=O)CC(CC(=O)O)(C(=O)O)O1 (stereo not drawn) + NC1CC1c1ccc(-c2cccc(O)c2)cc1", "assigned label": "false"}
{"molecule": "CC(C)CC(NC(=O)C(Cc1ccccc1)NC(=O)c1cnccn1)B(O)O (stereo not drawn) + NC1CC1c1ccc(-c2cccc(O)c2)cc1", "assigned label": "true"}
